biological target: Fes (UniProt P07332); experiment: phosphorylation enrichment, bacterial display (enrichment ratio); higher = better substrate or ligand; peptides without Tyr show the background
Sequence (P07332 whole entry, looked up): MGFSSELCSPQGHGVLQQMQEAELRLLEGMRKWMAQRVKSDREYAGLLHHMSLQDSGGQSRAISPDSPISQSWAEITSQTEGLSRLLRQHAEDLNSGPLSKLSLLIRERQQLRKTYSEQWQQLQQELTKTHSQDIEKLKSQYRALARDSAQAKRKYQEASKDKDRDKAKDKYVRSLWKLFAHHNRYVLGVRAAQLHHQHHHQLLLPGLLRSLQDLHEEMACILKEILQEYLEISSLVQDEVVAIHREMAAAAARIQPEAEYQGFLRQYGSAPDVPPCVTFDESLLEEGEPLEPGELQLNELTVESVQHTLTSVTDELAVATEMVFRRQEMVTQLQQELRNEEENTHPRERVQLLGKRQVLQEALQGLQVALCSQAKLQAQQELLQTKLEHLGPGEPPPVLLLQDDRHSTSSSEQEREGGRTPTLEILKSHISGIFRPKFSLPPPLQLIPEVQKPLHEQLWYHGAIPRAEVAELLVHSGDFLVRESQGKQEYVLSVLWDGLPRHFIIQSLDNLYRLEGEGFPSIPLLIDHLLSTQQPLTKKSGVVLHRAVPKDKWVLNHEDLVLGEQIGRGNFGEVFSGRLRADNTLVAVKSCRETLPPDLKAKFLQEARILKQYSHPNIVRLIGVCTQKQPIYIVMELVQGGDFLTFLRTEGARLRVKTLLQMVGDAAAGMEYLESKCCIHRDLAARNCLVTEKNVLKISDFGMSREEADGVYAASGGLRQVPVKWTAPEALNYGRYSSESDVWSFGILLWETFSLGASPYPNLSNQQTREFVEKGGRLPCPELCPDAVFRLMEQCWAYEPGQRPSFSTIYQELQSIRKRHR
Decision: phosphorylation enrichment compared against 0.7; not below it gives 1 (yes), below it gives 0 (no).

Q: Is reported phosphorylation enrichment greater than or equal to 0.7 here: GEIQEYGAPLD [ABCC1_Y1508_S1512L]
Result: 1 (yes)

Q: Is reported phosphorylation enrichment greater than or equal to 0.7 here: VEKGSYSALLA [ABCC2_Y845]
Result: 0 (no)

Q: Is reported phosphorylation enrichment greater than or equal to 0.7 here: LRWREYQRQDF [PRKRIP1_Y90_R87W_YF]
Result: 1 (yes)

Q: Is reported phosphorylation enrichment greater than or equal to 0.7 here: EPYKVYRIVPE [IRF8_Y110]
Result: 1 (yes)

Q: Is reported phosphorylation enrichment greater than or equal to 0.7 here: ASLEAYCKHKF [RXRA_Y403_YF]
Result: 1 (yes)

Others:
Q: Is reported phosphorylation enrichment greater than or equal to 0.7 here: LRFEVYGGENE [STOX1_Y610_YF]
Result: 1 (yes)

Q: Is reported phosphorylation enrichment greater than or equal to 0.7 here: SARFRYLMAEK [LDHB_Y173]
Result: 0 (no)

====

molecular target: EPHB1 (UniProt P54762); assay: phosphorylation enrichment, bacterial display (enrichment ratio); higher = better substrate or ligand; peptides without Tyr show the background
Sequence (P54762 whole entry, looked up): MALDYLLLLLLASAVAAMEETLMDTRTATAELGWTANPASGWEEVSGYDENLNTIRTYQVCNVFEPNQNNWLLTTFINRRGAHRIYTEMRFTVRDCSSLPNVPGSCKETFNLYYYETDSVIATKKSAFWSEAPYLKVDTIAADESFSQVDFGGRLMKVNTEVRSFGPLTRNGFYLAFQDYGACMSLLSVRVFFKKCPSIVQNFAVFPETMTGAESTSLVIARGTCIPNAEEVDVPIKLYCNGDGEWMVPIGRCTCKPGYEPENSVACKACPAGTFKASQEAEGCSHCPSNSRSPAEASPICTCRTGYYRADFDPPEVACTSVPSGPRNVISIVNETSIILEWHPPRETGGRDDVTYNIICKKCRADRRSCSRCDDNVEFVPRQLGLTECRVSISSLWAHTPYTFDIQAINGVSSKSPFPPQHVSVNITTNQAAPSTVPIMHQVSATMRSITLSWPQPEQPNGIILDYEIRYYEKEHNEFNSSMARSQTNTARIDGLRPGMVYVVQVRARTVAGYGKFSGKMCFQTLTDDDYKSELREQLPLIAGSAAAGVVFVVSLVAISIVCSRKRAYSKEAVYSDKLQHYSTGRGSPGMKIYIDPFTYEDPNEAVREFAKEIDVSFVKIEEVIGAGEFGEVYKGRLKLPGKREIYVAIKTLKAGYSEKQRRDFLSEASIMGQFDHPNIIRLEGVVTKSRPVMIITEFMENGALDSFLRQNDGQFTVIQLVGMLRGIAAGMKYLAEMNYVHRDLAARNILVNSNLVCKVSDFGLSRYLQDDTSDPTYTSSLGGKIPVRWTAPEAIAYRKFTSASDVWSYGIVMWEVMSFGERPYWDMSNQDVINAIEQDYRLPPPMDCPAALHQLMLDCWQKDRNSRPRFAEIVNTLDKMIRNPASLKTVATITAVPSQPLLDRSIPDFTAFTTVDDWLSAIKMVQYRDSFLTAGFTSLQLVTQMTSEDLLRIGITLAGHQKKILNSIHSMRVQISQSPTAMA
Decision: phosphorylation enrichment compared against 0.6; not below it gives true, below it gives false.

Q: Is reported phosphorylation enrichment greater than or equal to 0.6 here: FEKNVYVDKNL [PTCHD3_Y688]
Result: false

Q: Is reported phosphorylation enrichment greater than or equal to 0.6 here: RLLVVYHWTQR [HBD_Y36_P37H]
Result: true

Q: Is reported phosphorylation enrichment greater than or equal to 0.6 here: GVVVPYEPPEV [TP53_Y220_S215G]
Result: false

Q: Is reported phosphorylation enrichment greater than or equal to 0.6 here: SHLEDYPFDAE [AKR1B10_Y310_N313D]
Result: false

Kindly consider the entry below.
Q: Is reported phosphorylation enrichment greater than or equal to 0.6 here: GEKKAYVRLAP [RPL23A_Y137]
Result: false

====

molecular target: Jak2 (UniProt O60674); test: phosphorylation enrichment, bacterial display (enrichment ratio); higher = better substrate or ligand; peptides without Tyr show the background
Sequence (O60674 whole entry, looked up): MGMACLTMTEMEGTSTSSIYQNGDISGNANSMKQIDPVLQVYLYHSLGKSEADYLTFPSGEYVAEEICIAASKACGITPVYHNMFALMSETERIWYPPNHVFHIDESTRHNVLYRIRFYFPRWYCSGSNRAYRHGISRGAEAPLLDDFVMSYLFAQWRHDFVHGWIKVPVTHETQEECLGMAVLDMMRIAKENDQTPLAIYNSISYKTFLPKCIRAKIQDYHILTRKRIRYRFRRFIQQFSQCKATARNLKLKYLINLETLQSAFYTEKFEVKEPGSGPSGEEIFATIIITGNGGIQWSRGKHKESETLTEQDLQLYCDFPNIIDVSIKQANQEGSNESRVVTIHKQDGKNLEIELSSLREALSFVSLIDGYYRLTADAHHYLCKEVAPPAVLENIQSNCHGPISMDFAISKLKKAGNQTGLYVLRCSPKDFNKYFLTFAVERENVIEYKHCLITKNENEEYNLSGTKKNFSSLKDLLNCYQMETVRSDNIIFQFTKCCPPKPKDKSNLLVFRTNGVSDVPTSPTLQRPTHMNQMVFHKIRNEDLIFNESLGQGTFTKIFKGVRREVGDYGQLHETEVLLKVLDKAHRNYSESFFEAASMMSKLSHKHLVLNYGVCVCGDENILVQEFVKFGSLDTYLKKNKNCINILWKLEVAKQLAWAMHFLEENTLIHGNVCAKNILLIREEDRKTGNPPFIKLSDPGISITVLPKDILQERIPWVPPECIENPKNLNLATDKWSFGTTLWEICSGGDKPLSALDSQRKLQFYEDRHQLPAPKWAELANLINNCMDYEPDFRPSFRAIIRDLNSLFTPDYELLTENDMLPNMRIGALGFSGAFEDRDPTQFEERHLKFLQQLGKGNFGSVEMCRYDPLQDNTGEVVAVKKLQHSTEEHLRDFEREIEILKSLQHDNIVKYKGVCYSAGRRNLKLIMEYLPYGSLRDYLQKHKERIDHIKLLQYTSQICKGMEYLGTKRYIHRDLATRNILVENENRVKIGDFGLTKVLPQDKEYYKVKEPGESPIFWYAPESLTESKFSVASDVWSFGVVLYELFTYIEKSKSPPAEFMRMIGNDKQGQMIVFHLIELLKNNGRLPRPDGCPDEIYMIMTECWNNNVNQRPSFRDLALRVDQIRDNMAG
MEASURED_ENDPOINT: phosphorylation enrichment
Reply with the value as a number alone.

phosphorylation enrichment recorded for this sequence, HQNGMYGLHQD [SGSH_Y89] , is 0.726

phosphorylation enrichment recorded for this sequence, REQREYLDQLN [CCDC88B_Y1277] , is 0.578

phosphorylation enrichment recorded for this sequence, IALSKYGRVKW [FGF6_Y186_R191W] , is 0.56

phosphorylation enrichment recorded for this sequence, THEVRYVSAGQ [SLCO4A1_Y77] , is 0.632

phosphorylation enrichment recorded for this sequence, KVGNEYVTKGQ [MYH7_Y410] , is 0.471

phosphorylation enrichment recorded for this sequence, VTSLKYSTPPF [BRIP1_Y916_S919P_YF] , is 0.599

Others:
phosphorylation enrichment recorded for this sequence, KNKNRSKNILP [PTPN11_Y279_Y279S] , is 0.632

phosphorylation enrichment recorded for this sequence, ILTLKYPIELG [ACTA1_Y71_H75L] , is 0.74

phosphorylation enrichment recorded for this sequence, GTHCHYKAPIV [FZD9_Y569_T573I] , is 0.658

phosphorylation enrichment recorded for this sequence, EIIPFYGMSTF [FNDC3B_Y175_YF] , is 0.879

phosphorylation enrichment recorded for this sequence, SIRFNYLLDVL [FGFR4_Y237_YF] , is 1

phosphorylation enrichment recorded for this sequence, IVRSRYEDLED [VHL_Y185_L184R] , is 0.964

phosphorylation enrichment recorded for this sequence, VAVVQYSGTGQ [COL6A1_Y878] , is 0.576

phosphorylation enrichment recorded for this sequence, VIERSYTSADG [DHCR7_Y382_C380R] , is 0.578

====

target: FGFR1 (UniProt P11362); assay: phosphorylation enrichment, bacterial display (enrichment ratio); higher = better substrate or ligand; peptides without Tyr show the background
Sequence (P11362 whole entry, looked up): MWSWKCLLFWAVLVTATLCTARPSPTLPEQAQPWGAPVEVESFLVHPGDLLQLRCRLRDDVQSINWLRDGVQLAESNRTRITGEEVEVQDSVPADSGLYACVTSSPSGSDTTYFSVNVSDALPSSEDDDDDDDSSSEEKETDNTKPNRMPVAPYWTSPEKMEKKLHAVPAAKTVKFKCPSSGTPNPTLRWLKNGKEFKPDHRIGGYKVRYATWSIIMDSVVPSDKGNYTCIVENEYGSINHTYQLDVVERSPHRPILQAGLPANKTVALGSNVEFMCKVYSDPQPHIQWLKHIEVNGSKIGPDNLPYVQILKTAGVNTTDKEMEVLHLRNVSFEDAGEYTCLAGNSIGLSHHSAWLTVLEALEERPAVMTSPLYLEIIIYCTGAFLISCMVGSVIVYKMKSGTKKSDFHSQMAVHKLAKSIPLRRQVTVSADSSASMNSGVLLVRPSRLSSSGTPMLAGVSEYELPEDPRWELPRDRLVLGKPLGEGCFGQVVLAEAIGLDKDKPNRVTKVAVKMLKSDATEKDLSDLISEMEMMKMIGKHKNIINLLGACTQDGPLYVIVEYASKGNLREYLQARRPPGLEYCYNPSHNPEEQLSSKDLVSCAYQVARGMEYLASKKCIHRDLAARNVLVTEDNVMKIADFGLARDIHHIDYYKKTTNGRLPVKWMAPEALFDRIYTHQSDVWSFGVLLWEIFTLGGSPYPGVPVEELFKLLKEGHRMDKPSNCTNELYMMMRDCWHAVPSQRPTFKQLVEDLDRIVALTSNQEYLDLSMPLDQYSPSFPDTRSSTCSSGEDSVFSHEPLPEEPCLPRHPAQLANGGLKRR
Decision: phosphorylation enrichment compared against 0.5; not below it gives yes (1), below it gives no (0).

Worked examples follow.
Q: Is reported phosphorylation enrichment greater than or equal to 0.5 here: NSGFFYKTAEE [CCT6B_Y250]
Result: yes (1)

Q: Is reported phosphorylation enrichment greater than or equal to 0.5 here: TVQVAYFTMMM [SPATA17_Y83_YF]
Result: yes (1)

Q: Is reported phosphorylation enrichment greater than or equal to 0.5 here: RMDGKYACSYT [FLNB_Y704_T703K]
Result: yes (1)

Others:
Q: Is reported phosphorylation enrichment greater than or equal to 0.5 here: LFLALYTGLVR [PIGB_Y402_H407R]
Result: no (0)

Q: Is reported phosphorylation enrichment greater than or equal to 0.5 here: AAVDTYCRHNF [HLA-DRB1_Y107_YF]
Result: no (0)

Q: Is reported phosphorylation enrichment greater than or equal to 0.5 here: ALPVFYAATIA [SLC20A2_Y187]
Result: no (0)

====

target: SHP2-C SH2; test: SH2 binding enrichment of the phosphorylated peptide, bacterial display (enrichment ratio); higher = better substrate or ligand; peptides without Tyr show the background;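 also: peptide library displayed on the E. coli surface as eCPX fusions, selected cells deep-sequenced, score is each peptide's frequency after selection divided by its frequency in the input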
Decision: SH2 binding enrichment compared against 0.8; not below it gives True, below it gives False.

Worked examples follow.
Q: Is reported SH2 binding enrichment greater than or equal to 0.8 here: SNMPTYSGHFS [GRIN2A_Y1224_T1229S]
Result: False

Q: Is reported SH2 binding enrichment greater than or equal to 0.8 here: KVGNEYITKGQ [MYH7_Y410_V411I]
Result: False

Q: Is reported SH2 binding enrichment greater than or equal to 0.8 here: MSRYIYSTDYY [NTRK1_Y676_D674Y]
Result: True

Kindly consider the entry below.
Q: Is reported SH2 binding enrichment greater than or equal to 0.8 here: TLNVRHESVQA [CEACAM7_Y236_Y236H]
Result: False

====

tested on: Fer (mouse); assay: phosphorylation enrichment, bacterial display (enrichment ratio); higher = better substrate or ligand; peptides without Tyr show the background
This listing pairs sequences with measured phosphorylation enrichment.
Reply with the value as a number alone.

A selection of reference data follows.
phosphorylation enrichment recorded for this sequence, SADIAYNYRHG [PAH_Y166_F161S] , is 0.469

phosphorylation enrichment recorded for this sequence, EEGESYVCSSD [DCX_Y125] , is 0.799

Others:
phosphorylation enrichment recorded for this sequence, RRMLQYLTVND [PPFIBP2_Y663] , is 0.456

phosphorylation enrichment recorded for this sequence, CHKRTYKVTGL , is 0.398

phosphorylation enrichment recorded for this sequence, QFLMKYVWSAS [ABCD1_Y337] , is 0.565

====

target: MERTK (UniProt Q12866); assay: phosphorylation enrichment, bacterial display (enrichment ratio); higher = better substrate or ligand; peptides without Tyr show the background
Sequence (Q12866 whole entry, looked up): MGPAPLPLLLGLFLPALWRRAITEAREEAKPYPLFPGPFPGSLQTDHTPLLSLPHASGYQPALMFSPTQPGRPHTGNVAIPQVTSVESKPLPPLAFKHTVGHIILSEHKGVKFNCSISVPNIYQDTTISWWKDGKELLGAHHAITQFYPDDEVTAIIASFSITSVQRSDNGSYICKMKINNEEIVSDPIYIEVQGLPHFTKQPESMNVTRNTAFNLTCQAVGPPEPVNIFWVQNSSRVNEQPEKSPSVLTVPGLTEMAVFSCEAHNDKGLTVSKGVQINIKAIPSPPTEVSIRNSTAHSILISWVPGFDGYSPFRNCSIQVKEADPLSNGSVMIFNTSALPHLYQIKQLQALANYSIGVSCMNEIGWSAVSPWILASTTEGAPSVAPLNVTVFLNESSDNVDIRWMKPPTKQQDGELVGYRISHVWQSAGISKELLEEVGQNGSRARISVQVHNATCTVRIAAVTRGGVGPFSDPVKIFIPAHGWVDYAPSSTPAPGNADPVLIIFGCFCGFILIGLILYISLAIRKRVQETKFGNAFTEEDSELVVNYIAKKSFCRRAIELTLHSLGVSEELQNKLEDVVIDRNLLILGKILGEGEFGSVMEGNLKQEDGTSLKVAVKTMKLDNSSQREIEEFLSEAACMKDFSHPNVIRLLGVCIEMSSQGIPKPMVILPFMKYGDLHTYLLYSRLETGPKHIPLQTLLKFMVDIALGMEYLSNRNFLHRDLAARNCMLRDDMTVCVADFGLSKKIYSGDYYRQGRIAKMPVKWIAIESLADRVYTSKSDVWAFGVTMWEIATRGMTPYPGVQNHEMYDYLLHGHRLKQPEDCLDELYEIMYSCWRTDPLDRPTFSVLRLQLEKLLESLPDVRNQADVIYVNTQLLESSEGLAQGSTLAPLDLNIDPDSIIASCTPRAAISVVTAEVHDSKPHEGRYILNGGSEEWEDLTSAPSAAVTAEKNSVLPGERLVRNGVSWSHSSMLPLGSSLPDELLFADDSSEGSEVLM
This listing pairs sequences with measured phosphorylation enrichment.

A selection of reference data follows.
phosphorylation enrichment recorded for this sequence, PRLLRYLQLDF [ASB10_Y457] , is 0.701

phosphorylation enrichment recorded for this sequence, MSSHHYDFKKF [ZNF445_Y428_YF] , is 0.376

Others:
phosphorylation enrichment recorded for this sequence, ILTLKYPIELG [ACTA1_Y71_H75L] , is 0.352

phosphorylation enrichment recorded for this sequence, LGKGSYAKVRS [TSSK2_Y23_K27R] , is 0.744

phosphorylation enrichment recorded for this sequence, LAVNPYGPPDL , is 0.517

phosphorylation enrichment recorded for this sequence, ECKLLYSQKEG [PTPN11_Y263_R265Q] , is 0.494

phosphorylation enrichment recorded for this sequence, KKMKRYHVGKV [HARS2_Y151] , is 0.43

phosphorylation enrichment recorded for this sequence, CETMEYLESKQ [BTK_Y511_A508T] , is 0.527

====

tested on: c-Abl (mouse); assay: phosphorylation enrichment, bacterial display (enrichment ratio); higher = better substrate or ligand; peptides without Tyr show the background
This listing pairs sequences with measured phosphorylation enrichment.
Reply with the value as a number alone.

A selection of reference data follows.
phosphorylation enrichment of SREALYNETDP [CACNA1A_Y794_M797T] , assay on c-Abl (mouse), is 0.996

phosphorylation enrichment of TRTEAYAVSSF , assay on c-Abl (mouse), is 0.476

phosphorylation enrichment of SSYSRYIMMPN [LEF1_Y114_G113R] , assay on c-Abl (mouse), is 0.405

phosphorylation enrichment of FEKNVYVDKNL [PTCHD3_Y688] , assay on c-Abl (mouse), is 0.616

phosphorylation enrichment of LQLLGHRPVYS [CHST6_Y358_Y358H] , assay on c-Abl (mouse), is 0.418

phosphorylation enrichment of LAEMNYVHQDL [EPHB1_Y740_R743Q] , assay on c-Abl (mouse), is 0.533

phosphorylation enrichment of DGQSVYKLTDF [TBK1_Y153] , assay on c-Abl (mouse), is 0.444

phosphorylation enrichment of LHRHAYPEQRQ [DPPA2_Y127] , assay on c-Abl (mouse), is 0.789

phosphorylation enrichment of RLLVVYHWTQR [HBD_Y36_P37H] , assay on c-Abl (mouse), is 1.32

phosphorylation enrichment of FSGKAYADEEQ [CRIM1_Y826_R831Q] , assay on c-Abl (mouse), is 1.2

Others:
phosphorylation enrichment of STASGYSDVTD [DTX2_Y425] , assay on c-Abl (mouse), is 0.61

phosphorylation enrichment of RRMLQYLTVND [PPFIBP2_Y663] , assay on c-Abl (mouse), is 0.691

phosphorylation enrichment of PSARTYCYKQE [KLHDC9_Y175] , assay on c-Abl (mouse), is 0.63

phosphorylation enrichment of AHEALYLEADL [CENPF_Y1920_E1915A] , assay on c-Abl (mouse), is 1.09
